Lab note: Ki readings collected with 5-hydroxytryptamine receptor 2A (Homo sapiens, UniProt P28223) for the following molecules.
Sequence (P28223 whole entry): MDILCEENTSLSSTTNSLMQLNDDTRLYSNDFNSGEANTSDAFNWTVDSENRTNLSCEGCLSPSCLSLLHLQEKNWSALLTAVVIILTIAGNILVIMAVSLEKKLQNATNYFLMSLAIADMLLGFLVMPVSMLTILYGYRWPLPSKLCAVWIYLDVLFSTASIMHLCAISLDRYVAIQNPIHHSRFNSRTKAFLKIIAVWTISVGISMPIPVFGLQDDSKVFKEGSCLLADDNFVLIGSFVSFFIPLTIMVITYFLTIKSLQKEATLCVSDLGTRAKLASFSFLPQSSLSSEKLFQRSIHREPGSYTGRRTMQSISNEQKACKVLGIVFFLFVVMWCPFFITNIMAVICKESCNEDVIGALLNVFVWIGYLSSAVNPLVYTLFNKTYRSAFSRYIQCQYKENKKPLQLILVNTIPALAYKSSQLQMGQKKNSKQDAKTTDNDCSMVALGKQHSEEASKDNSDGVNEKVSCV
Endpoint: Ki (nM)

Smiles code: O=S(=O)(NCCCCN1CCN(c2cccc(Cl)c2Cl)CC1)c1cncc2ccccc12
Numeric value: 90
//
Smiles code: O=S(=O)(NCCCCN1CCN(c2cccc(Cl)c2Cl)CC1)c1ccc2ncccc2c1
Numeric value: 23
//
Smiles code: O=S(=O)(NCCCN1CCN(c2cccc(Cl)c2Cl)CC1)c1ccc2cccnc2c1
Numeric value: 47

I: O=S(=O)(NCCCCN1CCN(c2cccc(Cl)c2Cl)CC1)c1cnc2ccc(Cl)cc2c1
II: O=S(=O)(NCCCN1CCN(c2cccc(Cl)c2Cl)CC1)c1ccc2ncccc2c1
Please compare: I and II . Report which one has the smaller Ki value. Choose, then provide that item's label.
I

----------
- Tested on: Mus musculus
- Protocol notes: Antidepressant activity in Swiss albino mouse assessed as reduction of immobility time at 20 mg/kg, ip measured during last 4 mins of a 6 mins test session by forced swim test
- Type: functional
- Parameters: scale not given: the % may be the effect or the level left
- Details: route intraperitoneal
Endpoint: Activity (%)
Give just the numeric value; % need not be written.

Tell me its Activity given O=S(=O)(NCCCCN1CCN(c2cccc(Cl)c2Cl)CC1)c1cc2ccccc2cn1 as the entry.
83

Tell me its Activity given O=S(=O)(NCCCCN1CCN(c2cccc(Cl)c2Cl)CC1)c1ccc2cccnc2c1 as the entry.
41

Tell me its Activity given O=S(=O)(NCCCCN1CCN(c2cccc(Cl)c2Cl)CC1)c1cncc2ccccc12 as the entry.
44

Tell me its Activity given O=S(=O)(NCCCCN1CCN(c2cccc(Cl)c2Cl)CC1)c1cnc2ccccc2c1 as the entry.
30

----------
Lab note: Ki readings collected with UniProtKB P08908 for the following compounds.
Sequence (P08908 whole entry): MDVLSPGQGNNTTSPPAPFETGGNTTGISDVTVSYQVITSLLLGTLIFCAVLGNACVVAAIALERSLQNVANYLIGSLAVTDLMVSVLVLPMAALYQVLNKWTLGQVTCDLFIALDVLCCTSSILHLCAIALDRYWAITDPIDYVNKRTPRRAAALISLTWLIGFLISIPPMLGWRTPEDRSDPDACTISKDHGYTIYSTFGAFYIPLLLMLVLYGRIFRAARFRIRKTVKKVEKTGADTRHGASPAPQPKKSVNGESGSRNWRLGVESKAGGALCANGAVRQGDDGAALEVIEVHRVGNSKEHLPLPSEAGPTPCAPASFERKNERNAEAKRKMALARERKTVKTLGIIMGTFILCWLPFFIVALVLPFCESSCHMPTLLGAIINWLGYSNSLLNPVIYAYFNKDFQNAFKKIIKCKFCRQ
Endpoint: Ki (nM)

Smiles code: O=S(=O)(NCCCCN1CCN(c2cccc(Cl)c2Cl)CC1)c1ccc2cccnc2c1
Ki, nM: 17

I: O=S(=O)(NCCCCN1CCN(c2cccc(Cl)c2Cl)CC1)c1cc2ccccc2cn1
II: O=S(=O)(NCCCN1CCN(c2cccc(Cl)c2Cl)CC1)c1ccc2cccnc2c1
// pick larger Ki from pair: I vs II Choose, then provide that item's label.
I
(I: 34 nM, II: 14 nM)

----------
Item-by-item account of ED50
- Species: Mus musculus
- Protocol notes: animal or person
- Details: Swiss albino, ip, read-out: ID50
- Description: Antipsychotic activity in ip dosed Swiss albino mouse assessed as inhibition of apomorphine-induced climbing behavior administered 10 mins before apomorphine-challenge measured after 2 mins
Give just the numeric value; mg/kg need not be written.

Tell me its ED50 given O=S(=O)(NCCCCN1CCN(c2cccc(Cl)c2Cl)CC1)c1cncc2ccccc12 as the entry.
11.3

Tell me its ED50 given O=S(=O)(NCCCCN1CCN(c2cccc(Cl)c2Cl)CC1)c1ccc2cccnc2c1 as the entry.
19.9

Tell me its ED50 given O=S(=O)(NCCCCN1CCN(c2cccc(Cl)c2Cl)CC1)c1cc2ccccc2cn1 as the entry.
19.9

Tell me its ED50 given O=S(=O)(NCCCCN1CCN(c2cccc(Cl)c2Cl)CC1)c1cnc2ccccc2c1 as the entry.
20.7
